Tested on: carbonyl reductase from Lactococcus lactis
TEST_DESCRIPTION: CRLL activity assay (decrease of NADPH absorption); substrate table of the isolated carbonyl reductase
Assay type: biochemical
ASSAY_SETUP: Substrate (20 mM)
// returns f unless Activity (U/mL) is strictly below 8 U/mL, in which case t

{"columns": ["COMPOUND", "CLASS"],
 "data": [
  ["CC(=O)CC(C)=O", "f"],
  ["CC(=O)C(C)C", "f"],
  ["CC(=O)COc1ccccc1", "f"],
  ["CCC=O", "f"],
  ["CCOC(=O)CC(C)=O [ethyl acetoacetate]", "t"],
  ["CC(C)=O", "f"],
  ["CC(=O)c1ccccc1", "f"],
  ["O=Cc1ccccc1", "f"],
  ["CCC(=O)c1ccccc1", "t"],
  ["O=C(O)C(=O)c1ccccc1 [benzoylformate]", "t"],
  ["CCOC(=O)C(=O)c1ccccc1 [ethyl benzoylformate]", "f"],
  ["CC(=O)CO [hydroxyacetone]", "t"],
  ["CC(=O)CCC(C)=O", "f"]
]}
